Quick reference for TCR Mut RLU/WT RLU among some binders
# targetUnderTest: KRAS G13D antigen (G13D-RT6, SEQ ID NO: 20) loaded on Lovo-DPA0301:DPB0501 cells (human)
# testName: cell-based or functional assay
Numbers only here, please. The scale is ratio.

Consider the following illustrative entries.
binder | TCR Mut RLU/WT RLU [ratio]
B8.2.4 TCR mutant β96T-G (TCR, V domains shown) V domain 1: AQKITQTQPGMFVQEKEAVTLDCTYDTSDPSYGLFWYKQPSSGEMIFLIYQGSYDQQNATEGRYSLNFQKARKSANLVISASQLGDSAMYFCAMRERTGTASKLTFGTGTRLQVTL V domain 2: DVKVTQSSRYLVKRTGEKVFLECVQDMDHENMFWYRQDPGLGLRLIYFSYDVKMKEKGDIPEGYSVSREKKERFSLILESASTNQTSMYLCASSQGVPPQHFGDGTRLSILE | 0.05
B8.2.4 TCR mutant β98P-M (TCR, V domains shown) V domain 1: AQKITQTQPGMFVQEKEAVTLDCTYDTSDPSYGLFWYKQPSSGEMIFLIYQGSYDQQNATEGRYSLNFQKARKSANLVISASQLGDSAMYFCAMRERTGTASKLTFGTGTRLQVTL V domain 2: DVKVTQSSRYLVKRTGEKVFLECVQDMDHENMFWYRQDPGLGLRLIYFSYDVKMKEKGDIPEGYSVSREKKERFSLILESASTNQTSMYLCASSQTVMPQHFGDGTRLSILE | 0.83
B8.2.4 TCR mutant β98P-K (TCR, V domains shown) V domain 1: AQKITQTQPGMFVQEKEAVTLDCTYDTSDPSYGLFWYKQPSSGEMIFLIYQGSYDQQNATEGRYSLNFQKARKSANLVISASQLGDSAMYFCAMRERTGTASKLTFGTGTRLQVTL V domain 2: DVKVTQSSRYLVKRTGEKVFLECVQDMDHENMFWYRQDPGLGLRLIYFSYDVKMKEKGDIPEGYSVSREKKERFSLILESASTNQTSMYLCASSQTVKPQHFGDGTRLSILE | 0.47

Reported TCR Mut RLU/WT RLU for B8.2.4 TCR mutant β95Q-V (TCR, V domains shown) V domain 1: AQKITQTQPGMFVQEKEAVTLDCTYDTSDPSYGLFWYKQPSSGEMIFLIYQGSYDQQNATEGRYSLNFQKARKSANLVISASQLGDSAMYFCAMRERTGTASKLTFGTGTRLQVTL V domain 2: DVKVTQSSRYLVKRTGEKVFLECVQDMDHENMFWYRQDPGLGLRLIYFSYDVKMKEKGDIPEGYSVSREKKERFSLILESASTNQTSMYLCASSVTVPPQHFGDGTRLSILE : what is it?
0.76

Reported TCR Mut RLU/WT RLU for B8.2.4 TCR mutant β96T-C (TCR, V domains shown) V domain 1: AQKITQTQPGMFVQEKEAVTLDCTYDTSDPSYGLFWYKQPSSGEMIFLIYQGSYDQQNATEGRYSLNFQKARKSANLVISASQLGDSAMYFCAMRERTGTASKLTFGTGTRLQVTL V domain 2: DVKVTQSSRYLVKRTGEKVFLECVQDMDHENMFWYRQDPGLGLRLIYFSYDVKMKEKGDIPEGYSVSREKKERFSLILESASTNQTSMYLCASSQCVPPQHFGDGTRLSILE : what is it?
0.78

Reported TCR Mut RLU/WT RLU for B8.2.4 TCR mutant β97V-K (TCR, V domains shown) V domain 1: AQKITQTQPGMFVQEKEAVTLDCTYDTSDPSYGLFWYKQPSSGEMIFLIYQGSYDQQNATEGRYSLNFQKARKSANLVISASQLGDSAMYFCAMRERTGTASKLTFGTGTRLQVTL V domain 2: DVKVTQSSRYLVKRTGEKVFLECVQDMDHENMFWYRQDPGLGLRLIYFSYDVKMKEKGDIPEGYSVSREKKERFSLILESASTNQTSMYLCASSQTKPPQHFGDGTRLSILE : what is it?
0.48

Reported TCR Mut RLU/WT RLU for B8.2.4 TCR mutant β98P-N (TCR, V domains shown) V domain 1: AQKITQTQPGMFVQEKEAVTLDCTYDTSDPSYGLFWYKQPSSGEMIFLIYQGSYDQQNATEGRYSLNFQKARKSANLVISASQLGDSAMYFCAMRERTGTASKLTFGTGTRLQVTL V domain 2: DVKVTQSSRYLVKRTGEKVFLECVQDMDHENMFWYRQDPGLGLRLIYFSYDVKMKEKGDIPEGYSVSREKKERFSLILESASTNQTSMYLCASSQTVNPQHFGDGTRLSILE : what is it?
0.41

Reported TCR Mut RLU/WT RLU for B8.2.4 TCR mutant β95Q-Y (TCR, V domains shown) V domain 1: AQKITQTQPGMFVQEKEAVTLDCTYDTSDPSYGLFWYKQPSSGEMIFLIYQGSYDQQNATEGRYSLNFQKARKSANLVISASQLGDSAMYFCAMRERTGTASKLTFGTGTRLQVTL V domain 2: DVKVTQSSRYLVKRTGEKVFLECVQDMDHENMFWYRQDPGLGLRLIYFSYDVKMKEKGDIPEGYSVSREKKERFSLILESASTNQTSMYLCASSYTVPPQHFGDGTRLSILE : what is it?
0.92

Reported TCR Mut RLU/WT RLU for B8.2.4 TCR mutant β97V-W (TCR, V domains shown) V domain 1: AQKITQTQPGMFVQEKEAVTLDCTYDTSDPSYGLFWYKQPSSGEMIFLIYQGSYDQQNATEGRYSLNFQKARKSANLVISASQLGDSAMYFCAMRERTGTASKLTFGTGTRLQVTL V domain 2: DVKVTQSSRYLVKRTGEKVFLECVQDMDHENMFWYRQDPGLGLRLIYFSYDVKMKEKGDIPEGYSVSREKKERFSLILESASTNQTSMYLCASSQTWPPQHFGDGTRLSILE : what is it?
0.52

Reported TCR Mut RLU/WT RLU for B8.2.4 TCR mutant β96T-M (TCR, V domains shown) V domain 1: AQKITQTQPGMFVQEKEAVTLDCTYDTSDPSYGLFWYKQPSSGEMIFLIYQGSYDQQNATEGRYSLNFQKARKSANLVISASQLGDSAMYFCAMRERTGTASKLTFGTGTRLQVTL V domain 2: DVKVTQSSRYLVKRTGEKVFLECVQDMDHENMFWYRQDPGLGLRLIYFSYDVKMKEKGDIPEGYSVSREKKERFSLILESASTNQTSMYLCASSQMVPPQHFGDGTRLSILE : what is it?
0.35

Just for reference, patent US20240123070A1 is where these values come from.
